The reported measurements were obtained from patent US20250197505A1.

studySystem: T1, human CD94 expressed on cells (human primary NK cells in PBMCs; HEK cells expressing human CD94) (human, UniProt Q13241 1-179)
T1 construct: whole, on cells; also called KLRD1; Natural killer cells antigen CD94
T1 sequence (looked up): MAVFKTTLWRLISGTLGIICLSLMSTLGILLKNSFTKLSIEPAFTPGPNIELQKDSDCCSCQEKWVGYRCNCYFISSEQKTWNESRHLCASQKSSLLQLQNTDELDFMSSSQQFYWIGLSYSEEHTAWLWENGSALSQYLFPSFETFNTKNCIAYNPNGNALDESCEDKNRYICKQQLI
assaySummary: flow cytometry, HEK cells expressing human CD94, 1st run
This listing pairs binders with measured EC50.
Please state the figure in nM; there is no need to write the unit.

Just so you know, measured EC50 for Ab.32 hG1 (antibody, V domains shown, Human IgG1 form; also called Ab.32 human IgG1) VH: EVQLLESGGGLVKPGGSLRLSCAASGFTFSSYSMNWVRQAPGKGLEWVSSISTSSNFIYYADSVKGRFTISRDNAKNSLYLQMNSLRAEDTAVYYCARDLGRYYYYMDVWGKGTTVTVSS VL: DIVMTQSPSSLSASVGDRVTITCRASQSISSWLAWYQQKPGKAPKSLIYAASSLQSGVPSKFSGSGSGTDFTLTISSLQPEDFATYYCQKYNSAPFTFGPGTKVDIK came out at 0.12

Just so you know, measured EC50 for Ab.27 hG1 (antibody, V domains shown, Human IgG1 form; also called Ab.27 human IgG1) VH: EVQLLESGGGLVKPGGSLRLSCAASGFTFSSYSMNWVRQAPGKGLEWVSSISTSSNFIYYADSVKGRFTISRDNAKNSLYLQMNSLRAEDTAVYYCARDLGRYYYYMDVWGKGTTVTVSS VL: DIVMTQSPSSLSASVGDRVTITCRASQSISSWLAWFQQKPGKAPKSLIYAASSLQSGVPSKFSGSGSGTDFTLTISSLQPEDVATYYCQKYNSAPFTFGPGTKVDIK came out at 0.26
